Assay System: FFAR1 (Homo sapiens)
Construct: expressed in transfected cells
Sequence (O14842 whole entry): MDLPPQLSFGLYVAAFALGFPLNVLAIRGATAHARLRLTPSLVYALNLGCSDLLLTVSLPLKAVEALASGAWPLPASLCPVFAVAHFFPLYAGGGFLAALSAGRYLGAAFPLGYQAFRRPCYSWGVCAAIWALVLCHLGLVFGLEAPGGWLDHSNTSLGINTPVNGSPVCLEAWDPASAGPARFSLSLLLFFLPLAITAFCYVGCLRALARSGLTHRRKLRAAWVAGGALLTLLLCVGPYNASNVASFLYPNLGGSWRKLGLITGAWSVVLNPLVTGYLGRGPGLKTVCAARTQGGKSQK
Assay Text: IP-One assay for FFAR1 in stably transfected CHO-K1 cells
Assay type: cell-based
Assay Setup: cellular IP-One assay; mean, n ≥ 3
Experimental: CHO-K1 cells (DSMZ, ACC110) were cultured at 5% CO2 and 37 °C in full growth medium (Ham’s F-12 medium supplemented with 10% fetal calf serum (FCS), penicillin (100 U/mL) and streptomycin (100 µg/mL)). For harvesting cells were incubated with Trypsin/EDTA. IP-One assay for AT1 and FFAR1. […] Antagonist activity of compounds was measured with parallel stimulation with 10 nM [Val5]-Angiotensin II. […] A full dose-response curve with FFAR1 reference agonist GW9508 was measured as control for assay performance. […]
Measured Parameter: EC50 (µM)
Quick reminder: number only, in µM, skip the unit.

Prompt: Given the entry CC#CC(CC(=O)O)c1ccc(OCc2cccc(-c3ccccc3C(=O)O)c2)cc1 (stereo not shown) , what EC50 was observed with FFAR1 (Homo sapiens)?
Completion: 8.5

###

Assay System: PPARδ (Homo sapiens, UniProt Q03181)
Sequence (Q03181 211-439 limits assumed): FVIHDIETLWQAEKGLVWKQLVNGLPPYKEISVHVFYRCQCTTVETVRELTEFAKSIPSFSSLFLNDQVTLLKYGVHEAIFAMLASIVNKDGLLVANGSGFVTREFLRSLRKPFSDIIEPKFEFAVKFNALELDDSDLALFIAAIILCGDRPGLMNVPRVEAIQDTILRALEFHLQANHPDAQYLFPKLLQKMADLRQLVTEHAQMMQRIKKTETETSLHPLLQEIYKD
Assay Text: Gal4-hybrid reporter gene assay PPARδ
Assay Setup: mean, n ≥ 3
Measured Parameter: EC50 (µM)
Quick reminder: number only, in µM, skip the unit.

Prompt: Requested field: EC50. Item: CC(C)(C)c1ccc(NC(=O)N[C@H]2CC[C@H](Oc3ccc(CCC(=O)O)cc3)CC2)cc1
Completion: 10

###

Assay System: sEH (Homo sapiens, UniProt P34913)
Sequence (P34913 1-555): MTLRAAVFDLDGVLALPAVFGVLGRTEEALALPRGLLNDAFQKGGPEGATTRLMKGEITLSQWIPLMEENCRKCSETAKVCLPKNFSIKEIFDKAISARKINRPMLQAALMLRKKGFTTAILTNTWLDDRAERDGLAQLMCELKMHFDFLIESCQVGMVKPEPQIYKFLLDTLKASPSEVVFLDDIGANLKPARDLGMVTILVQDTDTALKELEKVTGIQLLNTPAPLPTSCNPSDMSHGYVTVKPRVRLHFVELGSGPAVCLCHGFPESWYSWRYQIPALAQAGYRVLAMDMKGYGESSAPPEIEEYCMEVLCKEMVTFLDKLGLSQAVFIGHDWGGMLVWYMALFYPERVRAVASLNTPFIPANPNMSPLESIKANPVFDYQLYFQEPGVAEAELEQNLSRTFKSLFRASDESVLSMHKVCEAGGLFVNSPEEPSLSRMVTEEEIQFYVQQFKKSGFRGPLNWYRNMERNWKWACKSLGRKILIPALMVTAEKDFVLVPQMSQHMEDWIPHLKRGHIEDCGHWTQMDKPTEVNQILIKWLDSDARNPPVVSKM
I'd be grateful if you could share measured pIC50 for these entries.
The read-out pIC50 is expressed as -log10 of concentration in moles per litre.

Prompt: Given the entry CCC(c1ccc(C(=O)O)cc1)c1cccc(NC(=O)Nc2ccc(OC(F)(F)F)cc2)c1 (centres unmarked) [Compound 11] , what pIC50 was observed with sEH (Homo sapiens, UniProt P34913)?
Completion: 7.21

Prompt: Given the entry O=C(O)CCc1ccc(OC2CCCN(C(=O)NCc3c(Cl)cc(Cl)cc3Cl)CC2)cc1 (centres unmarked) [Compound 8] , what pIC50 was observed with sEH (Homo sapiens, UniProt P34913)?
Completion: 6.70

Prompt: Given the entry CC(C)(C)c1ccc(CNC(=O)c2ccc(C(=O)O)cc2)cc1 [Compound 1] , what pIC50 was observed with sEH (Homo sapiens, UniProt P34913)?
Completion: 5.39

Prompt: Given the entry O=C(O)c1ccc(OC2CCCN(C(=O)NCc3ccc(Cl)cc3Cl)CC2)cc1 (centres unmarked) [Compound 10] , what pIC50 was observed with sEH (Homo sapiens, UniProt P34913)?
Completion: 7.70

Prompt: Given the entry CC(C)(C)c1ccc(NC(=O)N[C@H]2CC[C@H](Oc3ccc(CCC(=O)O)cc3)CC2)cc1 [Compound 7] , what pIC50 was observed with sEH (Homo sapiens, UniProt P34913)?
Completion: 7.77
